Here, each record is paired with measured cytotoxicity at 70.5 h data.
# Assay Comment: Human HepG2 cell viability assay in 384 well format
# Format: toxicity, cell-based
# Design: dose 125 nL, time 70.5 hour; concentration not given beside the values
# Test Settings: HepG2 cells, read-out: Inhibition
Measurement Type: cytotoxicity at 70.5 h (%)

>>> reported_measurement("O=C(NC[C@H]1C[C@@H]2CCN1C[C@@H]2CN1CCCCC1)Nc1ccccc1")
-1.01
>>> reported_measurement("Cc1nc(-c2ccncc2)ncc1C(C)NC(=O)C1=NN(C)C(=O)CC1 (stereo unspecified)")
-8.41
>>> reported_measurement("Cc1cccc(CN2C(=O)CCC23CCN(C(=O)N2CCCC2)CC3)n1")
0.698
>>> reported_measurement("CN(C)C(=O)C1OC2(CCNCC2)c2ccccc21 (stereo unspecified)")
-6.23
>>> reported_measurement("CCOCC(=O)N1CCC2(CC1)COCCN2CCOC")
-1.68
>>> reported_measurement("CCN1CCC2(C1)CN(S(=O)(=O)c1cn(C)cn1)C2")
-5.09
>>> reported_measurement("CCn1ncc(CN2C[C@@H]3CCCN3C[C@H]2CCSC)c1C")
1.32
>>> reported_measurement("CN1CCN(Cc2ccccc2Oc2ccc(C(N)=O)cn2)CC1")
-6.47
>>> reported_measurement("O=C(NCC1CC1)C1CN(c2ncccn2)Cc2ccnn2C1 (stereo unspecified)")
-14.5
>>> reported_measurement("Cc1[nH]c2c(F)cccc2c1CC(=O)NCc1csc(N(C)C)n1")
39.7
>>> reported_measurement("Cn1ncc2c(N3CCN4CCCCC4C3)nc(C3CCCC3)nc21 (stereo unspecified)")
-0.0598
